test: Pharmacokinetics in SD rats (i.v. and i.g.); type: in vivo; details: male, Sprague-Dawley (SD), rat, plasma, po, i.g 12 mg/kg, read-out: Tmax
OBSERVED PROPERTY: Tmax (h)

P. CONC(=O)Nc1ccc(-c2sc3c(c2CN(C)C)c(=O)n(-c2cccc(OC(F)F)c2F)c(=O)n3Cc2c(F)cccc2F)cc1
Q. CCNC(=O)Nc1ccc(-c2sc3c(c2CN(C)C)c(=O)n(-c2ccc(OC)nn2)c(=O)n3Cc2c(F)cccc2F)cc1
# min-compare on Tmax between P and Q Answer format: the label of the selected item.
Q

* * *

experiment: Pharmacokinetics in SD rats (i.v. and i.g.); assay type: in vivo; details: male, Sprague-Dawley (SD), rat, plasma, po, i.g 12 mg/kg
OBSERVED PROPERTY: half-life (h)

P. CONC(=O)Nc1ccc(-c2sc3c(c2CN(C)C)c(=O)n(-c2cccc(OC(F)F)c2F)c(=O)n3Cc2c(F)cccc2F)cc1 [Compound 3]
Q. CCNC(=O)Nc1ccc(-c2sc3c(c2CN(C)C)c(=O)n(-c2ccc(OC)nn2)c(=O)n3Cc2c(F)cccc2F)cc1 [Compound 2A]
# min-compare on half-life between P and Q Answer format: the label of the selected item.
P
